- experiment: NCI Yeast Anticancer Drug Screen. Data for the mlh1 rad18 strain (AID 175)
- study-conditions: S. cerevisiae mlh1 rad18 strain growth inhibition; at 50.0 µM; hits give high values
The panel holds about 79,000 compounds, 15% with a hit somewhere; the sample as a whole holds those more often.
Let's look at some molecules and their measured growth inhibition.
readout-name: growth inhibition (%)

1) CC(C)(CO)C(Cl)C(=O)NCCC(=O)O (stereo not drawn) ... -13.4
2) NC(CSSCC(N)Cc1ccccc1)Cc1ccccc1 (stereo not drawn) ... 25.9
3) CCCCCC/C(CC(=O)CCC(=O)NCCc1ccccc1)=N\Nc1ccc([N+](=O)[O-])cc1[N+](=O)[O-] ... -1.7
4) O=C(CNOCc1ccccc1)OCc1ccccc1 ... 19.4
5) CC1(C)CC(C)(C)c2c1oc(=O)c1c3c(oc(=O)c21)C(C)(C)CC3(C)C ... -9.85
6) C#CC1(O)CCCCCCCCC2(CCCCCCCC1)OCCO2 ... 1.25
7) O=C(COc1ccc(Cl)cc1)Nc1cccc([N+](=O)[O-])c1 ... 6.7
8) NC(Cc1cccs1)C(=O)O (stereo not drawn) ... -37.1

* * *

- experiment: NCI Yeast Anticancer Drug Screen. Data for the mec2-1 strain (AID 157)
- study-conditions: S. cerevisiae mec2-1 strain, at 50.0 µM
This is part of a sample that, as a whole, favours compounds with a hit. Of some 79,000 tested, about 15% had one in any assay. Active and inactive are the calls of the source. Rule as the data show it: active = growth inhibition above about 70%; inactive = the rest. Where a SMILES comes first, the peptide text is derived from it. [ ]: non-standard residue; d: D form. The star is where a group is joined. Ac5c = NC1(C(=O)O)CCCC1; Cbz = O=C(OCc1ccccc1)*; Boc = CC(C)(C)OC(=O)*; tBu = CC(C)(C)*
Outcomes: 1 (active), -1 (inactive)

1. O=C1C=C/C(=N/c2ccc(O)o2)c2ccccc21 ... -1
2. Cc1c(N)cc2c(c1N)C(C)(C)CC2(C)C ... -1
3. Cc1cc2c(=O)cc(-c3ccc(C(=O)O)cc3)oc2c(C(N)=O)c1C ... -1
4. CC(=O)N/N=C/c1cccc([N+](=O)[O-])c1 ... -1
5. CC1=NC(=Cc2ccc(O)cc2)C(=O)N1n1c(-c2ccccc2)nc2ccccc2c1=O ... -1
6. C1OC1CO[C@H]1CO[C@H]2[C@@H]1OC[C@@H]2OCC1CO1 (stereo not given in full) ... -1
7. CCCCCCC(C)Oc1ccccc1Cl (stereo not given) ... -1
8. COC(=O)C1(NC(=O)C(Cc2ccccc2)NC(=O)C(NC(=O)C(CCCCNC(=O)OC(C)(C)C)NC(=O)C(Cc2c[nH]c3ccccc23)NC(=O)C(Cc2ccccc2)NC(=O)OCc2ccccc2)C(C)OC(C)(C)C)CCCC1 (stereo not given) (Cbz-FWK(Boc)T(tBu)F[Ac5c]-OMe; configuration not given here) ... -1
9. N#Cc1ccc(OCCSCCCCCCCCCCSCCOc2ccc(C#N)cc2)cc1 ... -1
10. NCCCCCCCCCCCCN ... -1
11. COc1cc(/C=N/NC(N)=S)cc(OC)c1 ... -1
12. Cc1[nH]c(=O)nc(N/N=C/c2ccc(O)cc2)c1C(=O)Nc1ccc(Cl)cc1 ... -1
13. CC(=O)OCC1OC(n2c(=S)n(-c3ccc([N+](=O)[O-])cc3)c(=O)c3ccccc32)C(OC(C)=O)C(OC(C)=O)C1OC(C)=O (stereo not given) ... -1
14. CC(C)(C)[C@@H]1NC(=O)CN1C(=O)OCc1ccccc1 ... -1
15. NC1C(=O)Nc2ccccc21 (stereo not given) ... -1
16. CCOC(=O)C(=O)Nc1ccccc1C(C)C ... -1
17. Nc1n[n+](-c2ccc(Cl)cc2)no1 ... 1
18. Nc1cc(F)cc(C(F)(F)F)c1F ... -1
19. Nc1nnc2nc(C(C(=O)c3cccc(O)c3)c3nc4nnc(N)n4[nH]c3=O)c(=O)[nH]n12 ... -1
20. Cc1c(-c2ccc3c(c2)COC3)sc(N)c1C#N ... -1
